All values here come from patent US20090111847A1.

System: Aphis craccivora
Test: Insecticidal activity against Aphis craccivora by immersing (mortality after 24 hours)
Format: in vivo
Conditions: in vivo
assay_metric: Aphis craccivora Mortality (%) (100 ppm)
Form field: result (number plus unit)

Some compounds with known Aphis craccivora Mortality (%) (100 ppm) results, for comparison:
>>> result("CC1CC(O)N2CCN(Cc3cnc(Cl)s3)C2=C1[N+](=O)[O-] (stereo not drawn) [f]")
"87%"
>>> result("CCCC1CC(O)N2CCN(Cc3ccc(Cl)nc3)C2=C1[N+](=O)[O-] (stereo not drawn) [i]")
"77%"
>>> result("CCOC1CC([N+](=O)[O-])=C2N(Cc3ccc(Cl)nc3)CCN2C1O (stereo not drawn) [q]")
"85%"
>>> result("CCCOC1CC(C)C([N+](=O)[O-])=C2N(Cc3ccc(Cl)nc3)CCN21 (stereo not drawn) [d]")
"75.4%"
>>> result("COC1CC(C)C([N+](=O)[O-])=C2N(Cc3ccc(Cl)nc3)CCN21 (stereo not drawn) [b]")
"84%"

# evaluate next
Please report Aphis craccivora Mortality (%) (100 ppm) for the following compound: CC1CC([N+](=O)[O-])=C2N(Cc3ccc(Cl)nc3)CCN2C1O (stereo not drawn) [g]
92%
